Subject Of Test: Nav1.6 (Homo sapiens, UniProt Q9UQD0)
Sequence (Q9UQD0 whole entry): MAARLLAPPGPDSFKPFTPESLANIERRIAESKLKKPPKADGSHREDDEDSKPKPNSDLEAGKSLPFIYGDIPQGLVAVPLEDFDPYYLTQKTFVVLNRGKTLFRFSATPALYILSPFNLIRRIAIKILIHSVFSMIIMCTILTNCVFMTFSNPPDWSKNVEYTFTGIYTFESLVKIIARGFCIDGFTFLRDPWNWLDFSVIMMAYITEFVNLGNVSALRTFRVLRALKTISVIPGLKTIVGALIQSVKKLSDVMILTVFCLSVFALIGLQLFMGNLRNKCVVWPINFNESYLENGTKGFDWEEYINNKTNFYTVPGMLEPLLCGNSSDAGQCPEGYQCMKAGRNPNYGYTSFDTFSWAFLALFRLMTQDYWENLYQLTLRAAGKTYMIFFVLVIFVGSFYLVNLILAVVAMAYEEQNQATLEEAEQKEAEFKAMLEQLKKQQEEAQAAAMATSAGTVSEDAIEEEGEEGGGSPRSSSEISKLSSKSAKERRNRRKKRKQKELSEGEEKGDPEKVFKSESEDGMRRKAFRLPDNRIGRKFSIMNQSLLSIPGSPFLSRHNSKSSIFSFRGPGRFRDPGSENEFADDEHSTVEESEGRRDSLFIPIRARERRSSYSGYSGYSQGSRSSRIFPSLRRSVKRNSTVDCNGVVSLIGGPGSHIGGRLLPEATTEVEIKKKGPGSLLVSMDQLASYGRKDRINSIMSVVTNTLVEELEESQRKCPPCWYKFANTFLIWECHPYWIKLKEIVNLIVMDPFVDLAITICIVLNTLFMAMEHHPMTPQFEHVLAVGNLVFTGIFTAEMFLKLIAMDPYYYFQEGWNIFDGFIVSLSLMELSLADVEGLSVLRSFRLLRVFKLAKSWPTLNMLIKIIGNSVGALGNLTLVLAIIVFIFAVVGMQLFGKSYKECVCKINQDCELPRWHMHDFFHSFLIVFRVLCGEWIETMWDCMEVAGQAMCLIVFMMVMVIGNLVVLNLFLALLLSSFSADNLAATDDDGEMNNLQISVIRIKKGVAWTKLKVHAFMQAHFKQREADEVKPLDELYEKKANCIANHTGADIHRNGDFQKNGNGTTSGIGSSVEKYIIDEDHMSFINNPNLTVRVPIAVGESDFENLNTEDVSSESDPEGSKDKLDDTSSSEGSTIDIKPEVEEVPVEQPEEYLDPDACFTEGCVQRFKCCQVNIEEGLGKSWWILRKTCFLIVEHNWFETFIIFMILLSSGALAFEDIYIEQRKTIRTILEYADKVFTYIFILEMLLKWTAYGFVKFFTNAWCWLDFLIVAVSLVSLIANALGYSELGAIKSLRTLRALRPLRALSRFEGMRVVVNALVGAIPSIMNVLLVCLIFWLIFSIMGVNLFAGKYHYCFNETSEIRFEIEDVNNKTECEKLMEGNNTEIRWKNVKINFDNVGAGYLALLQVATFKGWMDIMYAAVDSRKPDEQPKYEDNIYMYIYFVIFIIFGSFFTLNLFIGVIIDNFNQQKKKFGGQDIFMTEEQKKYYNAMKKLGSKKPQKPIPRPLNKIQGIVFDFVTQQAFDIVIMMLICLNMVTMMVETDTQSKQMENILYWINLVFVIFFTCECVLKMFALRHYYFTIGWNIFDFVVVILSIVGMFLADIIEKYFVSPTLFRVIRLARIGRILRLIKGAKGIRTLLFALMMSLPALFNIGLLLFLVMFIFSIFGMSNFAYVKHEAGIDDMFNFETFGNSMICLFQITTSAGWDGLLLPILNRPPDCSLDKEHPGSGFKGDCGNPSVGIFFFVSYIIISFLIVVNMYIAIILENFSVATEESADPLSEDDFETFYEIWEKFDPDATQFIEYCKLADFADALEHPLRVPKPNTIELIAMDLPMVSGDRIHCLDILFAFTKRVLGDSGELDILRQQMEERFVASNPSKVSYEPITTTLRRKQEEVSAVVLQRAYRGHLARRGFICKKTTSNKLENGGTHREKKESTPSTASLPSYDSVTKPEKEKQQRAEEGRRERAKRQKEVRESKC
Assay Procedure: % block of Nav1.6 at 100 μM and IC50 (NaV1.6)
Format: cell-based
Particulars: comparison compounds; read-out: IC50 (NaV1.6)
Recorded Metric: IC50
Returns: string containing the number followed by the unit.

Provide value of IC50 for this record tested with Nav1.6 (Homo sapiens, UniProt Q9UQD0): c1ccc(-c2c[nH]c(-c3ccccc3)n2)cc1 [MV1115]
32 µM

###

Would you kindly list inhibition at 100 µM for each of these compounds?
Subject Of Test: Nav1.6 (Homo sapiens)
Assay Procedure: % block of Nav1.6 at 100 μM and IC50 (NaV1.6)
Assay type: cell-based
Particulars: 100 μM compound
Where a name gives a salt, the structure may show the parent alone.

The following compounds have reported results that may help.
{"Compound": "O=[N+]([O-])c1cccc(-c2nc3ccccc3[nH]2)c1", "inhibition at 100 µM": "30%"}
{"Compound": "Cc1nc(-c2ccccc2Cl)[nH]c1C [MV1367, OXALATE]", "inhibition at 100 µM": "45%"}
{"Compound": "Cc1nc(-c2cccc(Cl)c2)[nH]c1C [MV1366, OXALATE]", "inhibition at 100 µM": "95%"}
{"Compound": "CCCc1nc(-c2cccc(Cl)c2)[nH]c1C [MV1372, OXALATE]", "inhibition at 100 µM": "100%"}

Each compound below has a reported value. Please supply its inhibition at 100 µM.
1. COc1ccccc1-c1ncc[nH]1 [MV1352, OXALATE]
2. COc1ccc(C(=O)Nc2ccc(-c3c[nH]c(-c4ccccc4)n3)cc2)cc1 [MV1303, HYDROCHLORIDE]

30%
0%

Each compound below has a reported value. Please supply its inhibition at 100 µM.
1. COc1ccccc1-c1nc(C)c(C)[nH]1 [MV1364, OXALATE]
2. Clc1ccc(-c2nc3ccccc3[nH]2)cc1
3. FC(F)(F)c1cccc(-c2nc3ccccc3[nH]2)c1

["70%", "45%", "60%"]
